Taken from ChEMBL document CHEMBL3525958.

tested on: BCRP; assay: Efflux ratio of apparent permeability from basolateral to apical side over apical to basolateral side in MDCK2 cells expressing human BCRP at 5 uM by liquid scintillation counting; format: ADME, cell-based, Canis lupus familiaris, MDCK-II; conditions: dog
PARAMETER: efflux ratio at 5 µM
Answer field: number only, no words.

Prompt line: Consider the compound "COc1cc2nc(N3CCN(C(=O)c4ccco4)CC3)nc(N)c2cc1OC" and give its measured efflux ratio at 5 µM.
Response line: 10

----------
test: Ratio of AUC in milk to plasma in lactating rat; format: ADME; conditions: female, read-out: Ratio AUC
PARAMETER: Kp
Respond using a number only.

Prompt line: Suppose we examine the compound "COc1ccc(-n2nc(C(N)=O)c3c2C(=O)N(c2ccc(N4CCCCC4=O)cc2)CC3)cc1" ; what Kp value has been reported?
Response line: 30
